STUDY TARGET: Sodium/nucleoside cotransporter 2 (Homo sapiens) (UniProt O43868)
Sequence (whole entry): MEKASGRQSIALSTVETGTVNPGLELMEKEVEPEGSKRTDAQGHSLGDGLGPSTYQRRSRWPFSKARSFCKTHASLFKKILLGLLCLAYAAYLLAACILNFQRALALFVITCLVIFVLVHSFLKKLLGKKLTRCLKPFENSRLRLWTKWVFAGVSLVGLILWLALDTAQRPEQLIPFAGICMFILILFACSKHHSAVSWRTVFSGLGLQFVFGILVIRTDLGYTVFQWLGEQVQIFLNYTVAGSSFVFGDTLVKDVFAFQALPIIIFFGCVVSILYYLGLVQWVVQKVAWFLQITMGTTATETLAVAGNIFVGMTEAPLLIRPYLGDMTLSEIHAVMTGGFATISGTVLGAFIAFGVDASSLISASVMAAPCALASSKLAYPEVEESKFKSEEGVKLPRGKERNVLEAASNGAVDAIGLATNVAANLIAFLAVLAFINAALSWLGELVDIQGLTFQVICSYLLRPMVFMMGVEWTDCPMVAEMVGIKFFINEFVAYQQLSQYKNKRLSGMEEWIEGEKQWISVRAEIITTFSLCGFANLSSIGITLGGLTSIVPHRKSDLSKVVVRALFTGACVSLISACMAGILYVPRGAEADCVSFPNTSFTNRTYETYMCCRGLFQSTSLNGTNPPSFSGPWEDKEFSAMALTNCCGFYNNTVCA
ASSAY NOTES: Inhibition of human CNT2 expressed in COS7 cells assessed as reduction in sodium-dependent [14C]-inosine uptake at 100 uM in presence of Na+ by liquid scintillation counting method
Format: cell-based
CONDITION: COS-7
ENDPOINT NAME: inhibition

COMPOUND | READOUT VALUE
O=c1[nH]c(=O)n([C@H]2C[C@H](O)[C@@H](CO)O2)cc1F [FLOXURIDINE] | 17%
Nc1ncnc2c1nc(Nc1ccccc1)n2[C@@H]1O[C@H](CO)[C@@H](O)[C@H]1O | 36%
CN(Cc1ccccc1)c1nc2c(N)ncnc2n1[C@@H]1O[C@H](CO)[C@@H](O)[C@H]1O | < 5%
Nc1ncnc2c1nc(OCc1ccccc1)n2[C@@H]1O[C@H](CO)[C@@H](O)[C@H]1O | < 5%
Nc1ncnc2c1nc(NCCc1ccccc1)n2[C@@H]1O[C@H](CO)[C@@H](O)[C@H]1O | 39%
Nc1ncnc2c1nc(CCc1ccccc1)n2[C@@H]1O[C@H](CO)[C@@H](O)[C@H]1O | < 5%
O=c1cc(-c2cccc(O)c2)oc2c(O)c(O)ccc12 | < 5%
C[C@H](Nc1nc2c(N)ncnc2n1[C@@H]1O[C@H](CO)[C@@H](O)[C@H]1O)c1ccccc1 | < 5%

----------
Entries and their pIC50 values follow.
STUDY TARGET: Sodium/nucleoside cotransporter 2 (Homo sapiens, UniProt O43868)
ASSAY NOTES: Inhibition of human CNT2 expressed in COS7 cells assessed as reduction in sodium-dependent [14C]-inosine uptake in presence of Na+ by liquid scintillation counting method
Type: cell-based, COS-7
pIC50: −log10 of the molar value.

SMILES ENTRY | REL | pIC50
Nc1ncnc2c1nc(NCc1ccccc1Cl)n2[C@@H]1O[C@H](CO)[C@@H](O)[C@H]1O | = | 5.24
Nc1ncnc2c1nc(NCc1ccccc1-c1ccccc1)n2[C@@H]1O[C@H](CO)[C@@H](O)[C@H]1O | < | 4.00
Nc1ncnc2c1nc(NCc1cccc(Cl)c1)n2[C@@H]1O[C@H](CO)[C@@H](O)[C@H]1O | = | 5.27
Nc1ncnc2c1nc(NCCc1ccccc1)n2[C@@H]1O[C@H](CO)[C@@H](O)[C@H]1O | = | 3.63
CNC(=O)OC[C@H]1O[C@@H](n2cnc3c(N)ncnc32)[C@H](O)[C@@H]1O | < | 4.00
